Target: AEA-DA lipid probe targets in Neuro2a cells (Mus musculus)
Conditions: competitor 25 μM
Experimental endpoint: SILAC ratio, Dolpp1

[
  {
    "Molecule": "C=CCN(C)CCCCCCOc1ccc(C(=O)c2ccc(Br)cc2)c(F)c1 [Ro 48-8071, reference compound]",
    "Experimental endpoint": "SILAC ratio, Dolpp1",
    "Value": 1.3
  },
  {
    "Molecule": "CN1CCN(C(=O)c2[nH]c3ccc([N+](=O)[O-])cc3c2-c2ccccc2)CC1",
    "Experimental endpoint": "SILAC ratio, Dolpp1",
    "Value": 1.6
  },
  {
    "Molecule": "O=C(/C=C/c1cccnc1)NCCCCC1CCN(C(=O)c2ccccc2)CC1 [FK-866, reference compound]",
    "Experimental endpoint": "SILAC ratio, Dolpp1",
    "Value": 1.2
  },
  {
    "Molecule": "CN1CCN(C(=O)c2c(-c3ccccc3)c3cc([N+](=O)[O-])ccc3n2C)CC1",
    "Experimental endpoint": "SILAC ratio, Dolpp1",
    "Value": 1.6
  }
]

====

Biological target: AEA-DA lipid probe targets in Neuro2a cells (Mus musculus, UniProt Q8VIK2)
Sequence (Q8VIK2 whole entry): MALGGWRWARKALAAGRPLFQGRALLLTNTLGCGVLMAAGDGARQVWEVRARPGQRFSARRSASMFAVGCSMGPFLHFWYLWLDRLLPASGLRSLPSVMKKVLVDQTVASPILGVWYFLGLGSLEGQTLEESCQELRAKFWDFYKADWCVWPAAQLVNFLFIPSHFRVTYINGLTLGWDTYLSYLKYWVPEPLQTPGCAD
Conditions: competitor 25 μM
SILAC ratio Mpv17l2 for assorted molecules

[
  {
    "Molecule": "CN1CCN(C(=O)c2c(-c3ccccc3)c3cc([N+](=O)[O-])ccc3n2C)CC1",
    "SILAC ratio Mpv17l2": 1.5
  },
  {
    "Molecule": "CN1CCN(C(=O)c2[nH]c3ccc([N+](=O)[O-])cc3c2-c2ccccc2)CC1",
    "SILAC ratio Mpv17l2": 1.2
  },
  {
    "Molecule": "C=CCN(C)CCCCCCOc1ccc(C(=O)c2ccc(Br)cc2)c(F)c1 [Ro 48-8071, reference compound]",
    "SILAC ratio Mpv17l2": 1.8
  },
  {
    "Molecule": "O=C(/C=C/c1cccnc1)NCCCCC1CCN(C(=O)c2ccccc2)CC1 [FK-866, reference compound]",
    "SILAC ratio Mpv17l2": 1.4
  }
]

====

Target: AEA-DA lipid probe targets in Neuro2a cells (Mus musculus, UniProt P51174)
Sequence (P51174 31-430): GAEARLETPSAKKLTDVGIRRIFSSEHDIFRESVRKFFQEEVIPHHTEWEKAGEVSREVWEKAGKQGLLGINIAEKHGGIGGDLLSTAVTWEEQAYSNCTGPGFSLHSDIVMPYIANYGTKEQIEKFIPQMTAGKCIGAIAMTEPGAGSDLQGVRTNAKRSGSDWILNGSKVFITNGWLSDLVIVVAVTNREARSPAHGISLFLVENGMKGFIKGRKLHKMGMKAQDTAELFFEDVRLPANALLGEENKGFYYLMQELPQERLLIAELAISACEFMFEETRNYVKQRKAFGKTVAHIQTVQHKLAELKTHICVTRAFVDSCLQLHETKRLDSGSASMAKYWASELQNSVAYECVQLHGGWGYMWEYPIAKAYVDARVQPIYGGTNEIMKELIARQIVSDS
Conditions: competitor 25 μM

[
  {
    "Molecule": "CN1CCN(C(=O)c2[nH]c3ccc([N+](=O)[O-])cc3c2-c2ccccc2)CC1 [MJN228]",
    "Assay system": "AEA-DA lipid probe targets in Neuro2a cells (Mus musculus, UniProt P51174)",
    "SILAC ratio, Acadl": 1.8
  },
  {
    "Molecule": "C=CCN(C)CCCCCCOc1ccc(C(=O)c2ccc(Br)cc2)c(F)c1 [Ro 48-8071, reference compound]",
    "Assay system": "AEA-DA lipid probe targets in Neuro2a cells (Mus musculus, UniProt P51174)",
    "SILAC ratio, Acadl": 1.3
  },
  {
    "Molecule": "CN1CCN(C(=O)c2c(-c3ccccc3)c3cc([N+](=O)[O-])ccc3n2C)CC1 [KML110]",
    "Assay system": "AEA-DA lipid probe targets in Neuro2a cells (Mus musculus, UniProt P51174)",
    "SILAC ratio, Acadl": 1.8
  },
  {
    "Molecule": "O=C(/C=C/c1cccnc1)NCCCCC1CCN(C(=O)c2ccccc2)CC1 [FK-866, reference compound]",
    "Assay system": "AEA-DA lipid probe targets in Neuro2a cells (Mus musculus, UniProt P51174)",
    "SILAC ratio, Acadl": 12.4
  }
]

====

Biological target: AEA-DA lipid probe targets in Neuro2a cells (Mus musculus)
Conditions: competitor 25 μM
Readings of SILAC ratio Rab2a for the listed molecules
Experimental endpoint: SILAC ratio Rab2a

[
  {
    "Molecule": "CN1CCN(C(=O)c2c(-c3ccccc3)c3cc([N+](=O)[O-])ccc3n2C)CC1 [KML110]",
    "Value": 1.3
  },
  {
    "Molecule": "O=C(/C=C/c1cccnc1)NCCCCC1CCN(C(=O)c2ccccc2)CC1 [FK-866, reference compound]",
    "Value": 1.2
  },
  {
    "Molecule": "CN1CCN(C(=O)c2[nH]c3ccc([N+](=O)[O-])cc3c2-c2ccccc2)CC1 [MJN228]",
    "Value": 1.5
  },
  {
    "Molecule": "C=CCN(C)CCCCCCOc1ccc(C(=O)c2ccc(Br)cc2)c(F)c1 [Ro 48-8071, reference compound]",
    "Value": 1.1
  }
]

====

# key: entry, value: SILAC ratio Immt
Target: AEA-DA lipid probe targets in Neuro2a cells (Mus musculus, UniProt Q8CAQ8)
Sequence (Q8CAQ8 34-757): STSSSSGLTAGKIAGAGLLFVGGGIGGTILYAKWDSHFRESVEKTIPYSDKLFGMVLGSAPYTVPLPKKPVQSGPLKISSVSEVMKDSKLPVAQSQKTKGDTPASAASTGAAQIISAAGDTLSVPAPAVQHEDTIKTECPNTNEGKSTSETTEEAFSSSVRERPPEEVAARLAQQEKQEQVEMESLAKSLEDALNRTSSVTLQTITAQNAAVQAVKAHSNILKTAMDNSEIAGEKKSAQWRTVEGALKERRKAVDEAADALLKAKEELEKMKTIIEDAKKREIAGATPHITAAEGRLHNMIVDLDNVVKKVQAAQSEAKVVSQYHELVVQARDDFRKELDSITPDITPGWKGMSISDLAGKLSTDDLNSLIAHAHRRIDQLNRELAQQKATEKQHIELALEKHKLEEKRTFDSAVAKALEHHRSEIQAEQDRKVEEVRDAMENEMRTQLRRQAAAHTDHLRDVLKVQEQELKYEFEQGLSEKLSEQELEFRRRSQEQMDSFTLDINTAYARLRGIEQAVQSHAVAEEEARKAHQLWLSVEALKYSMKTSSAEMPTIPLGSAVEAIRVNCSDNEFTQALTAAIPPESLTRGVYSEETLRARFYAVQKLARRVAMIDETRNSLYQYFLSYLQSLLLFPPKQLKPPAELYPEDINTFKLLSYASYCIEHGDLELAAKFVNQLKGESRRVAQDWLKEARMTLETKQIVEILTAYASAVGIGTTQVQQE
Conditions: competitor 25 μM

[
  {
    "Molecule": "CN1CCN(C(=O)c2c(-c3ccccc3)c3cc([N+](=O)[O-])ccc3n2C)CC1",
    "SILAC ratio Immt": 1.3
  },
  {
    "Molecule": "C=CCN(C)CCCCCCOc1ccc(C(=O)c2ccc(Br)cc2)c(F)c1 [Ro 48-8071, reference compound]",
    "SILAC ratio Immt": 1.0
  },
  {
    "Molecule": "O=C(/C=C/c1cccnc1)NCCCCC1CCN(C(=O)c2ccccc2)CC1 [FK-866, reference compound]",
    "SILAC ratio Immt": 1.1
  },
  {
    "Molecule": "CN1CCN(C(=O)c2[nH]c3ccc([N+](=O)[O-])cc3c2-c2ccccc2)CC1",
    "SILAC ratio Immt": 1.2
  }
]

====

Target: AEA-DA lipid probe targets in Neuro2a cells (Mus musculus, UniProt Q91V01)
Sequence (Q91V01 1-487): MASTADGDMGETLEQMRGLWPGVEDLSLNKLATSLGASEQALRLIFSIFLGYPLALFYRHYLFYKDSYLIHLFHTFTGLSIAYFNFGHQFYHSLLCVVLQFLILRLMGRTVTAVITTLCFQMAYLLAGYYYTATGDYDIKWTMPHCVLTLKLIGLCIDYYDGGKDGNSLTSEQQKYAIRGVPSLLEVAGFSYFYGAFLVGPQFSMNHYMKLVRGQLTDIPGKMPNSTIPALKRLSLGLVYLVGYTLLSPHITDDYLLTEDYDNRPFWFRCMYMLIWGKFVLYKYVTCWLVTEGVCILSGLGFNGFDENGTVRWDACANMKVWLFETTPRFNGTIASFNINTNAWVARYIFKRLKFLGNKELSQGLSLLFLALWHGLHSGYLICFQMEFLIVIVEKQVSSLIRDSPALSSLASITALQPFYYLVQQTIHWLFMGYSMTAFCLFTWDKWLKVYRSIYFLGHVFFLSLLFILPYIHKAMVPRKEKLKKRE
Conditions: competitor 25 μM
SILAC ratio, Lpcat3 values for the compounds below.
Experimental endpoint: SILAC ratio, Lpcat3

[
  {
    "Compound": "CN1CCN(C(=O)c2[nH]c3ccc([N+](=O)[O-])cc3c2-c2ccccc2)CC1",
    "Value": 1.2
  },
  {
    "Compound": "C=CCN(C)CCCCCCOc1ccc(C(=O)c2ccc(Br)cc2)c(F)c1 [Ro 48-8071, reference compound]",
    "Value": 1.1
  },
  {
    "Compound": "CN1CCN(C(=O)c2c(-c3ccccc3)c3cc([N+](=O)[O-])ccc3n2C)CC1",
    "Value": 1.3
  },
  {
    "Compound": "O=C(/C=C/c1cccnc1)NCCCCC1CCN(C(=O)c2ccccc2)CC1 [FK-866, reference compound]",
    "Value": 2.3
  }
]

====

# SILAC ratio Slc38a2 values compiled below
Target: AEA-DA lipid probe targets in Neuro2a cells (Mus musculus, UniProt Q8CFE6)
Sequence (Q8CFE6 whole entry): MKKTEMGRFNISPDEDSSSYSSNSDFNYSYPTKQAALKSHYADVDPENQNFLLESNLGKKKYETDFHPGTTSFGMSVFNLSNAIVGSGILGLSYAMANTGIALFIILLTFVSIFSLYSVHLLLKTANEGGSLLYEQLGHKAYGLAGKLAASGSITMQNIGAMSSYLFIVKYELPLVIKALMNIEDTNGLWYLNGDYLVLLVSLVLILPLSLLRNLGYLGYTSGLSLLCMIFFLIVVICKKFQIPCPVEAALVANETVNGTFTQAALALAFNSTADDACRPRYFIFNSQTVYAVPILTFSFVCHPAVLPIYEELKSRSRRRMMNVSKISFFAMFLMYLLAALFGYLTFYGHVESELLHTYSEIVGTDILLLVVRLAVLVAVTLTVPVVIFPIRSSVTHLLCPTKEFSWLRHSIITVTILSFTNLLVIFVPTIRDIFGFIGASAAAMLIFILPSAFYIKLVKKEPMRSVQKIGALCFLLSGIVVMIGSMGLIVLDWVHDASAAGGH
Details: competitor 25 μM

[
  {
    "Compound": "C=CCN(C)CCCCCCOc1ccc(C(=O)c2ccc(Br)cc2)c(F)c1 [Ro 48-8071, reference compound]",
    "SILAC ratio Slc38a2": 0.7
  },
  {
    "Compound": "O=C(/C=C/c1cccnc1)NCCCCC1CCN(C(=O)c2ccccc2)CC1 [FK-866, reference compound]",
    "SILAC ratio Slc38a2": 1.0
  },
  {
    "Compound": "CN1CCN(C(=O)c2c(-c3ccccc3)c3cc([N+](=O)[O-])ccc3n2C)CC1 [KML110]",
    "SILAC ratio Slc38a2": 1.2
  },
  {
    "Compound": "CN1CCN(C(=O)c2[nH]c3ccc([N+](=O)[O-])cc3c2-c2ccccc2)CC1 [MJN228]",
    "SILAC ratio Slc38a2": 1.3
  }
]

====

Molecular target: AEA-DA lipid probe targets in Neuro2a cells (Mus musculus, UniProt P43883)
Sequence (P43883 whole entry): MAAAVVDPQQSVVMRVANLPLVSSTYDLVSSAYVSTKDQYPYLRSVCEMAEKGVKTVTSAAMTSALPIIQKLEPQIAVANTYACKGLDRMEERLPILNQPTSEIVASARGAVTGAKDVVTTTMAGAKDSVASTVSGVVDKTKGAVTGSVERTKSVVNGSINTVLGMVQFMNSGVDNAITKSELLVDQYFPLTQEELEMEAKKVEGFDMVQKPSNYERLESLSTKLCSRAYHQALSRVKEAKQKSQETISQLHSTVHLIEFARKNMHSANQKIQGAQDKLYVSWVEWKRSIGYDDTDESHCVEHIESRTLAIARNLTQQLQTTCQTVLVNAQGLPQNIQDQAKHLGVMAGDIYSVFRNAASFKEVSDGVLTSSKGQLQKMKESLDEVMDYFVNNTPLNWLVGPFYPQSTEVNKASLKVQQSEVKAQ
Settings: competitor 25 μM
SILAC ratio, Plin2 values by entry

[
  {
    "Compound": "C=CCN(C)CCCCCCOc1ccc(C(=O)c2ccc(Br)cc2)c(F)c1 [Ro 48-8071, reference compound]",
    "SILAC ratio, Plin2": 1.8
  },
  {
    "Compound": "CN1CCN(C(=O)c2[nH]c3ccc([N+](=O)[O-])cc3c2-c2ccccc2)CC1",
    "SILAC ratio, Plin2": 3.2
  },
  {
    "Compound": "O=C(/C=C/c1cccnc1)NCCCCC1CCN(C(=O)c2ccccc2)CC1 [FK-866, reference compound]",
    "SILAC ratio, Plin2": 1.0
  },
  {
    "Compound": "CN1CCN(C(=O)c2c(-c3ccccc3)c3cc([N+](=O)[O-])ccc3n2C)CC1",
    "SILAC ratio, Plin2": 2.7
  }
]
